# measured.on: T1, Placenta Growth Factor (PlGF), human (human, UniProt P49763 21-149)
# T1 chain: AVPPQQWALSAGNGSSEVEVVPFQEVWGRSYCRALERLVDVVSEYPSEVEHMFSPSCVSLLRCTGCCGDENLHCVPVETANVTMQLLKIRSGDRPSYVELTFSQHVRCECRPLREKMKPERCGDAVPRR
# test.name: ELISA
pEC50: recorded values
pEC50 field: float, defined as -log10 of concentration (mol/L).

Query: For HC 9/SLC 7 (antibody) chain 1: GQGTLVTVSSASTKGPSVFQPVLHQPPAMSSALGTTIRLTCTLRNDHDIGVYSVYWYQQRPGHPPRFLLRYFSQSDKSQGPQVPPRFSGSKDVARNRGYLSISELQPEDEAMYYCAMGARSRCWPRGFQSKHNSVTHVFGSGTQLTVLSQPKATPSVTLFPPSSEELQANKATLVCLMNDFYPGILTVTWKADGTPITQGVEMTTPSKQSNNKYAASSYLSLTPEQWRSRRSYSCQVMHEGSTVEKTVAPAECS chain 2: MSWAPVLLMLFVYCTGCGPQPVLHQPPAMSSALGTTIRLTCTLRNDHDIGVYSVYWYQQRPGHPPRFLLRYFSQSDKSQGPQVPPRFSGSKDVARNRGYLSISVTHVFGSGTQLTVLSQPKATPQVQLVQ , what is its reported pEC50?
Response: 10.20

Query: Repeat for the following binder: HC 8/SLC 9 (antibody) chain 1: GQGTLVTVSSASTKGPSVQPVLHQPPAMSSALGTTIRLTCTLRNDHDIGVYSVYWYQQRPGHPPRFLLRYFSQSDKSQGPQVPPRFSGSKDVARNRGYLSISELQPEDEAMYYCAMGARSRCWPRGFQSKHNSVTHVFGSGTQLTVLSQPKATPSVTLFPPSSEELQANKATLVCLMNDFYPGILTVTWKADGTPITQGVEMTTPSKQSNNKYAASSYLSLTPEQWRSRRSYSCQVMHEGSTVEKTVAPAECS chain 2: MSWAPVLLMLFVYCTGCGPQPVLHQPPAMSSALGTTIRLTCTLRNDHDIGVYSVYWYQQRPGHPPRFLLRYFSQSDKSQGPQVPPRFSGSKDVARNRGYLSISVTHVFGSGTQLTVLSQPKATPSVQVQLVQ
Response: 10.35
